Reference source for all entries: PubChem BioAssay AID1159580

Consider the following compounds; for each one, report its normalized growth.
assay: chemical genetic growth profiling, strain panel (AID 1159580);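 also: tested at 20 µM; growth read once vehicle control cultures reached saturation at 30 °C; 1 = growth at the plate median or of vehicle wells; lower values mean less growth of the strain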; settings: S. cerevisiae deletion strains, growth OD, locus YOR001W, strain rrp6, active compounds read low
The campaign covered roughly 5,500 compounds. About 2,000 (36%) were called active. Roughly 18% stayed inconclusive and do not appear here. Some of the results follow.
Numbers only.

• OCC(O)Cc1ccc2c(c1)OCO2 (stereo not drawn) = 0.985
• Cc1ccc(O)cc1 = 0.984
• Cc1cccc(Nc2cc(Cl)nc(SCC(=O)O)n2)c1C = 0.974
• CC[C@@H](CO)NCCN[C@@H](CC)CO = 0.99
• COc1ccc2c(c1)OC[C@@H](Cc1ccc(OC)c(OC)c1)[C@H]2O = 1.03

Give normalized growth for all compounds that follow.
1. OCCN(CCO)c1nc(N2CCCCC2)c2nc(N(CCO)CCO)nc(N3CCCCC3)c2n1
2. O=c1ccc2cc(O)c(O)cc2o1
3. CCc1ccc(CCOc2ccc(CC3SC(=O)NC3=O)cc2)nc1 (stereo not drawn)

Data returned:
0.928
1.03
1.01

Quick one: give me normalized growth for each item below, same order please.
1. CC(C)[C@H](N)C(=O)OCCOCn1cnc2c(=O)[nH]c(N)nc21
2. O=c1ccc2ccccc2o1
3. CC(=O)O[C@]1(C(C)=O)CCC2C3C=C(Cl)C4=CC(=O)CC[C@]4(C)C3CC[C@@]21C (stereo partly drawn)
4. CC(=O)O[C@]1(C(C)=O)CCC2C3C=C(C)C4=CC(=O)CCC4(C)C3CCC21C (stereo partly drawn)
5. CC(=O)[C@H]1CCC2C3C[C@H](C)C4=CC(=O)CC[C@]4(C)C3[C@@H](O)C[C@@]21C (stereo partly drawn)

Data returned:
1. 0.943
2. 0.935
3. 0.99
4. 0.947
5. 1.03

====

test: chemical genetic growth profiling, strain panel (AID 1159580); conditions: S. cerevisiae deletion strains, growth OD, locus YJR043C, strain POL32
Screen size: about 5,500 compounds; about 2,000 (36%) were called active. About 18% were inconclusive and are not listed. Cut-off read from the data, not from the text of the source: active = normalized growth mostly below about 0.91 (no sharp cut-off); inconclusive = no clear call, values can overlap the other calls; inactive = mostly above about 0.92. Some of the results follow.
Hi! Could you answer with just one of these? active, inactive

A selection of reference data follows.
* CC(C)=CCc1c(O)cc2oc(C)cc(=O)c2c1O | active
* CC(=O)[C@H]1CCC2C3C[C@H](C)C4=CC(=O)CC[C@]4(C)C3[C@@H](O)C[C@@]21C (some centres undefined) | inactive

Data request: Record lookup: outcome of this test for COc1ccc2cc1Oc1ccc(cc1)C[C@H]1c3cc(c(OC)cc3CCN1C)Oc1c(OC)c(OC)cc3c1[C@H](C2)N(C)CC3 ?
Data returned: inactive

Data request: // param item: CCCCOc1ccc(C(=O)CCN2CCCCC2)cc1 ; yields the recorded call
Data returned: active

====

assay: chemical genetic growth profiling, strain panel (AID 1159580); conditions: S. cerevisiae deletion strains, growth OD, locus YNL322C, strain KRE1, active compounds read low
In all, about 5,500 compounds went through this assay and about 2,000 (36%) were called active. About 18% were inconclusive and are not listed. Some of the results follow.
We label by threshold. Values of normalized growth strictly beneath 1 are rule met. Values of 1 and up are rule not met.

Check out these entries, answers already filled in.
- COc1ccc(C[C@H]2NC[C@H](O)[C@H]2OC(C)=O)cc1: rule met
- CN1C/C(=C\c2ccccc2Cl)C(=O)/C(=C/c2ccccc2Cl)C1: rule met
- CC(C)N(C(=O)CCl)c1ccccc1: rule not met
- CC1(C)C2CC[C@]3(C)C(C(=O)C=C4[C@@H]5C[C@@](C)(C(=O)O)CC[C@]5(C)CC[C@]43C)[C@@]2(C)CC[C@@H]1O (some centres not stated): rule not met
- Cc1cc(NC(=O)C(Cl)(Cl)Cl)n(-c2ccccc2)n1: rule met

Data request: Lab note: normalized growth threshold 1. Does this compound come in strictly under it? Oc1ccc2c3c1O[C@H]1c4[nH]c5c(c4C[C@@]4(O)[C@@H](C2)N(CC2CC2)CC[C@]314)C[C@@]1(O)[C@H]2Cc3ccc(O)c4c3[C@@]1(CCN2CC1CC1)[C@H]5O4
Data returned: rule met

Data request: Decide: normalized growth of COc1ccc(-c2coc3c(O)c(OC)ccc3c2=O)cc1 strictly below 1?
Data returned: rule met

Data request: Find out if reported normalized growth for CNC(=S)NN=C(N)c1ccccn1 is less than 1
Data returned: rule not met

====

test: chemical genetic growth profiling, strain panel (AID 1159580); details: S. cerevisiae deletion strains, growth OD, locus YER155C, strain BEM2 (second series)
Hit rate of the full screen: of about 5,500 compounds, about 2,000 (36%) were called active. Roughly 18% stayed inconclusive and do not appear here. Cut-off read from the data, not from the text of the source: active = normalized growth mostly below about 0.91 (no sharp cut-off); inconclusive = no clear call, values can overlap the other calls; inactive = mostly above about 0.92. The list shows a part of the results.
Bench note: report the call from active, inactive

* CN=C(NC#N)NCCSCc1nc(N=C(N)N)cs1 | inactive
* COc1ccc2c(c1)OC[C@@H](Cc1ccc(OC)c(OC)c1)[C@@H]2O | inactive
* CCCCCC(C)N (stereo not drawn) | inactive
* COc1c(O)cc2oc3cc(O)c(CC=C(C)C)c(O)c3c(=O)c2c1CC=C(C)C | active
* COC1C(O)C(O)C(O)[C@@H](O)C1O (stereo partly drawn) | inactive
* COc1cc(O)c(C(=O)c2ccccc2)cc1O | active
* COc1ccc2c(c1)OC[C@@H](Cc1ccc(OC)c(OC)c1)[C@H]2O | inactive
* COc1ccc(C(=O)c2ccccc2)c(O)c1 | active
* Cc1cc(=O)c2c(O)c(C)c(O)cc2o1 | inactive
* CC(=O)OC1CC23CC24CCC(OC2OCC(O)C(O)C2O)C(C)(C)C4CCC3C2(C)CC3OC4(CC(C)C3C12C)OC(O)C1(C)OC41 (stereo not drawn) | inactive

Data request: Check the results log: what was the call for Cc1cc(C(C)(C)CC(C)(C)C)ccc1OCCOCC[N+](C)(C)Cc1ccccc1 ?
Data returned: active

Data request: # fetch the recorded call for O=C(O)c1ccccc1OP(=O)(O)O here
Data returned: inactive

Data request: Kindly provide the recorded test outcome for the following compound: CC(C)[N+](C)(CCOC(=O)C1c2ccccc2Oc2ccccc21)C(C)C
Data returned: inactive

====

assay: chemical genetic growth profiling, strain panel (AID 1159580);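 also: tested at 20 µM; growth read once vehicle control cultures reached saturation at 30 °C; 1 = growth at the plate median or of vehicle wells; lower values mean less growth of the strain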; details: S. cerevisiae deletion strains, growth OD, locus YPR106W, strain ISR1, active compounds read low
Among all 5,500 compounds or so, about 2,000 (36%) were called active. About 18% were inconclusive and are not listed. This is one part of the list.
reported endpoint: normalized growth
Give bare numbers.

• Cn1c([N+](=O)[O-])cnc1/C=C(\C#N)C(=O)Nc1ccc(F)cc1 = 0.968
• COc1ccc(NC(=O)O/N=C(/N)c2ccc(Oc3c(Cl)cncc3Cl)cc2)cc1 = 0.98

Next:
Data request: Fill in the blank: the reported normalized growth of NCCCN=c1ccc2c3c1c(O)c1c(O)ccc(=O)c1c3[nH]n2CCNCCO is ____.
Data returned: 0.976

====

assay: chemical genetic growth profiling, strain panel (AID 1159580);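 also: tested at 20 µM; growth read once vehicle control cultures reached saturation at 30 °C; 1 = growth at the plate median or of vehicle wells; lower values mean less growth of the strain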; conditions: S. cerevisiae deletion strains, growth OD, locus YNL183C, strain NPR1, active compounds read low
Screen size: about 5,500 compounds; about 2,000 (36%) were called active. Roughly 18% stayed inconclusive and do not appear here. Some of the results follow.
reported endpoint: normalized growth
Numbers only.

• CC(C)(N=NC(C)(C)C(=N)N)C(=N)N = 0.906
• COc1ccc(C(C)=O)c(O)c1 = 0.892

Kindly give each listed record's normalized growth.
1. COc1ccc(NC(=O)O/N=C(/N)c2ccc(Oc3c(Cl)cncc3Cl)cc2)cc1
2. CO[C@H]1C[C@H](O[C@H]2[C@H](C)[C@@H](OC3O[C@H](C)C[C@H](N(C)C)[C@H]3O)[C@@H](C)C[C@]3(CO3)C(=O)[C@H](C)[C@@H](O)[C@@H](C)[C@@H](C)OC(=O)[C@@H]2C)O[C@@H](C)[C@@H]1O (some centres undefined)
3. CCOC(=O)c1ncn2c1CN(C)C(=O)c1cc(F)ccc1-2
4. COc1ccc(C(=O)c2ccccc2)c(O)c1
5. O=C(Nc1cc(Cl)cc(Cl)c1)Nc1cc(-c2ccco2)[nH]n1
6. NC(=O)N1c2ccccc2CC(=O)c2ccccc21
7. COC(=O)C1[C@H]2C[C@H]3c4[nH]c5ccccc5c4CCN3C[C@@H]2CC[C@@H]1O (some centres undefined)
8. COc1ccc(C(=O)c2ccccc2O)c(O)c1

Data returned:
1: 0.593; 2: 0.962; 3: 0.938; 4: 0.851; 5: 0.169; 6: 0.943; 7: 0.981; 8: 0.908

====

test: chemical genetic growth profiling, strain panel (AID 1159580);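 also: tested at 20 µM; growth read once vehicle control cultures reached saturation at 30 °C; 1 = growth at the plate median or of vehicle wells; lower values mean less growth of the strain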; settings: S. cerevisiae deletion strains, growth OD, locus YKR091W, strain srl3, active compounds read low
The campaign covered roughly 5,500 compounds. About 2,000 (36%) were called active. Not shown: some 18% with an inconclusive outcome. The list shows a part of the results.
Kindly supply the reported normalized growth values for the records listed here.
One number for each entry.

* CC1(C)C2CC[C@]3(C)C(C(=O)C=C4[C@@H]5C[C@@](C)(C(=O)O)CC[C@]5(C)CC[C@]43C)[C@@]2(C)CC[C@@H]1O (stereo partly specified) | 1.01

Value sought for every listed compound: normalized growth.
1. Cc1ccc2c(c1)CC[C@H]1CC(=O)CC[C@]21C
2. COc1ccc(C[C@H]2NC[C@H](O)[C@H]2OC(C)=O)cc1
3. COc1c(O)cc2oc3cc(O)c(CC=C(C)C)c(O)c3c(=O)c2c1CC=C(C)C

Data returned:
[1, 1, 1.01]

Hi! Can you tell me normalized growth for each of these compounds?
1. CCc1ccc(CCOc2ccc(CC3SC(=O)NC3=O)cc2)nc1 (stereo unspecified)
2. Cc1cc(=O)c2c(O)c(C)c(O)cc2o1

Data returned:
[0.999, 1.02]
